Biological target: Neu5Ac(a2-6)Gal(b1-4)GlcNAc(b1-3)Gal(b1-4)[Fuc(a1-3)]GlcNAc(b1-3)Gal(b1-4)[Fuc(a1-3)]GlcNAc
Test: glycan array binding signal (z-score within array); higher = stronger binding
Details: glycan notation: IUPAC condensed, linker removed
The sample as a whole holds a higher share of the strongest signals than the screen did.
observation type: glycan array binding signal (z-score)
Answer field: number only, no words.

binder: Aap lectin (Staphylococcus epidermidis) (protein) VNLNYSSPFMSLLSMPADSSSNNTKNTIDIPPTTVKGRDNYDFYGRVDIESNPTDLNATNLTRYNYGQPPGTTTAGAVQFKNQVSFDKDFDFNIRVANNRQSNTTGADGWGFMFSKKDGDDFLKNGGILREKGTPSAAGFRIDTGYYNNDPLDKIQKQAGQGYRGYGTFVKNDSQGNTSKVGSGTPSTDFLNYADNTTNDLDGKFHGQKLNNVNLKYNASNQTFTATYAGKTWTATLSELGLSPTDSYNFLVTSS
glycan array binding signal (z-score): -0.333

binder: LF82 (Escherichia coli) (protein) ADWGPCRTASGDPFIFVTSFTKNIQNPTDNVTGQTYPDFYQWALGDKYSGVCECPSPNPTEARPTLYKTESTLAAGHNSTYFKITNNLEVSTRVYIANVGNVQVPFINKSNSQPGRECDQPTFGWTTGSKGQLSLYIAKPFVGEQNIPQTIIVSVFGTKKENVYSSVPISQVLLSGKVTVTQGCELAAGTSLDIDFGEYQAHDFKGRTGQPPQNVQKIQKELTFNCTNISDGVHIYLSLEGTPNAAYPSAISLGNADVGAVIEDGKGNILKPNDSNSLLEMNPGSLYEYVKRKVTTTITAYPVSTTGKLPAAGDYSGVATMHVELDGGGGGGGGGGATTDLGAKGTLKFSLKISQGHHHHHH
glycan array binding signal (z-score): 0.159

Q: Using the record for F4 (Escherichia coli), A0A6L9DDF0 (protein) MKKTLIALALAASAVSGMAHAWTSGDFNGTVDIGGSIDATNYRQKWEWEVGTGLNGFYNALSELTNNDTKLTITVTGNKPILLGRTKEAFVTPTAGGWGGIPQIAFTDYKGAPVELKNPDGETNKGLAYFVLPMKNADGTEAGSVRVNASYAGAVVEKTSDSSAKLFSAYAGEVIRIFNGGLPVNVTQSELQSGVAAADRTALFGSLGKADLVAQFQAVIPGATVTDGTSSEHCTMRLLASAAYALGIADGQTIEATFNQAVTTSTQWSAPLNVAITYY , report its glycan array binding signal (z-score).
Result: 2.24

Q: Field request: glycan array binding signal (z-score) | item: SRS2 (Toxoplasma gondii), O15695 (protein) MATRASLARQKTGAACLAVLTASPSVVAAKPWKRWVGVSVILASAFAVGVSAGPPYRYEPEKFTCRPKKGILSQWVSLLYQVQHNITFACEEATPVPTTLISEEHGLMVCAENMTPEECEANPAPLSAFLPGATKEWVTGDSVLTGLKISVPESQYPANAKSFRVGCRHNTKTGNTCMLTIHVEPRDPAVERQEARCSYTENSTLPKIFVTKDSNTMTLACGPHGAPMPESYTENYCSTPDTCDEKPFTSVIPGYLSKWFFGDPKSPLGARVRIPPEQIPSSPQINYFGCTGPTEGEGPKYNCTVPVPLGGGDPSEGSRPGGGSGGGKRGGGQGGGGSLAGFDFRQGSARHSLPSRMALSASALLAMTALAY
Result: 0.576
